Experiment: in vivo
Parameters: species or system swine
Settings: both sexes, pig, im, 2 mg/kg, AUC 0-24 h
measuredProperty: AUC(0-t) (ng·h/mL)
Express it in ng·h/mL; write the number only.

Need AUC(0-t) of CC1(C)OC(=O)C(OCC2CC2)=C1c1ccc(S(C)(=O)=O)cc1 , thanks.
609

###

Experiment: Firocoxib pharmacokinetics in sows following IM administration (Example 2)
Assay type: in vivo, swine
Conditions: female, Yorkshire×Landrace, pig, plasma, im, 1.5 mg/kg, sows, 1.5 mg/kg IM, mean; read-out: AUCINF
Description: Protocols involved intramuscular injection of Firocoxib to lactating sows at either 0.5, 1.0, 1.5 or 2 mg/kg, and analysis in sows and select piglets at 21 days post treatment. […] A sample size of 4 sows was selected to describe the pharmacokinetics of firocoxib. […] In cases where the calculated dose volume exceeded 20-mL, the remaining volume was administered via IM injection in the left lateral neck muscle. […]
measuredProperty: AUC(0-inf) (ng·h/mL)
Express it in ng·h/mL; write the number only.

Need AUC(0-inf) of CC1(C)OC(=O)C(OCC2CC2)=C1c1ccc(S(C)(=O)=O)cc1 , thanks.
8660

Where do the numbers come from? From patent US10434083B2.
